B1: BTBD1 (parent)
chain: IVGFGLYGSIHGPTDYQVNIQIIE

- Variants of: B1
- PROTOCOL DESCRIPTION: protein stability index of a GFP-peptide fusion (GPS, HEK-293T) (PSI 1-6); higher = more stable;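 note: lentivirally expressed fusions sorted by FACS into six bins by GFP to DsRed ratio, PSI derived from sequencing read proportions per bin multiplied by bin number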
- CONDITION DESCRIPTION: c terminus: a fixed tail appended
Please use label 1 whenever protein stability index is not below 3, and label 0 whenever it is.

{"columns": ["MUTANT", "CAT"],
 "data": [
  ["S9I", "label 0"],
  ["H11V", "label 1"]
]}

Input line: Test whether the variant I10T records protein stability index of 3 or higher.
Output line: label 1

Each recorded value in this set is attributed to the supplement of paper PMC10567573.
